pIC50: −log10 of the molar value.
# BCL-2 (binding to BAK peptide) (Homo sapiens, UniProt P10415): pIC50 values follow
# Sequence (P10415 whole entry): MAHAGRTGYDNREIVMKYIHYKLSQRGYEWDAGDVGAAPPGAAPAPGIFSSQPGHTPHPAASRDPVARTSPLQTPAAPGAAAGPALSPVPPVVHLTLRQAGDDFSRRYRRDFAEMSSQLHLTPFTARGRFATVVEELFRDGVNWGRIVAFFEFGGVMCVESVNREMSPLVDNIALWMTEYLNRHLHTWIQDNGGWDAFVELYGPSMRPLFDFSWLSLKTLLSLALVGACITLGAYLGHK

In: Entry under review: CCCCN(CCCC)C(=O)c1cc(C)n(-c2ccc(NC(=O)CC(=O)O)cc2C(=O)N2Cc3ccccc3C[C@H]2CO)n1 . Reported pIC50?
Out: 6.60 to 6.62

In: Entry under review: CCCCN(CCCC)C(=O)c1cc(C)n(-c2ccc(NC(=O)Oc3ccccc3)cc2C(=O)N2Cc3ccccc3C[C@H]2CO)n1 . Reported pIC50?
Out: 6.51 to 6.55

In: Entry under review: CCCCN(CCCC)C(=O)c1cc(C)n(-c2ccc(NC(=O)c3cc(S(N)(=O)=O)ccc3OC)cc2C(=O)N2Cc3ccccc3C[C@H]2CO)n1 . Reported pIC50?
Out: 7.13 to 7.14

In: Entry under review: CCCCN(CCCC)C(=O)c1cc(C)n(-c2ccc(NC(=O)CC(CC(=O)O)c3ccccc3)cc2C(=O)N2Cc3ccccc3C[C@H]2CO)n1 (some centres unmarked) . Reported pIC50?
Out: 6.99 to 7.02

In: Entry under review: CCCCN(CCCC)C(=O)c1cc(C)n(-c2ccc(NC(=O)C3CC(=O)N(c4ccc(OCC)cc4)C3)cc2C(=O)N2Cc3ccccc3C[C@H]2CO)n1 (some centres unmarked) . Reported pIC50?
Out: 6.81

In: Entry under review: CCCCN(CCCC)C(=O)c1cc(C)n(-c2ccc(NC(=O)CCc3cn4cccnc4n3)cc2C(=O)N2Cc3ccccc3C[C@H]2CO)n1 . Reported pIC50?
Out: 6.46 to 6.52

In: Entry under review: CCCCN(CCCC)C(=O)c1cc(C)n(-c2ccc(NC(=O)C(Cc3ccccc3)(Cc3ccccc3)C(=O)O)cc2C(=O)N2Cc3ccccc3C[C@H]2CO)n1 . Reported pIC50?
Out: 7.26 to 7.36

In: Entry under review: CCCCN(CCCC)C(=O)c1cc(C)n(-c2ccc(NC(=O)Cc3ccc(OC)c(C)c3)cc2C(=O)N2Cc3ccccc3C[C@H]2CO)n1 . Reported pIC50?
Out: 6.97

In: Entry under review: CCCCN(CCCC)C(=O)c1cc(C)n(-c2ccc(NC(=O)Cc3ccc(OC)cc3)cc2C(=O)N2Cc3ccccc3C[C@H]2CO)n1 . Reported pIC50?
Out: 7.19 to 7.25

In: Entry under review: CCCCN(CCCC)C(=O)c1cc(C)n(-c2ccc(NC(=O)c3cc(C)[nH]n3)cc2C(=O)N2Cc3ccccc3C[C@H]2CO)n1 . Reported pIC50?
Out: 6.28 to 6.30

In: Entry under review: CCCCN(CCCC)C(=O)c1cc(C)n(-c2ccc(NC(=O)c3oc4ccccc4c3C)cc2C(=O)N2Cc3ccccc3C[C@H]2CO)n1 . Reported pIC50?
Out: 5.97 to 5.99

In: Entry under review: CCCCN(CCCC)C(=O)c1cc(C)n(-c2ccc(NC(=O)Cc3ccc(Cl)cc3)cc2C(=O)N2Cc3ccccc3C[C@H]2CO)n1 . Reported pIC50?
Out: 7.13 to 7.16

In: Entry under review: CCCCN(CCCC)C(=O)c1cc(C)n(-c2ccc(NC(=O)c3cc4cc(O)ccc4[nH]3)cc2C(=O)N2Cc3ccccc3C[C@H]2CO)n1 . Reported pIC50?
Out: 6.29 to 6.31

In: Entry under review: CCCCN(CCCC)C(=O)c1cc(C)n(-c2ccc(NC(=O)C(CC(=O)N(C)C)c3ccccc3)cc2C(=O)N2Cc3ccccc3C[C@H]2CO)n1 (some centres unmarked) [Example 99] . Reported pIC50?
Out: 6.84 to 6.96

Source: patent US20140357633A1
